- Test system: Kochia (Kochia scoparia)
- assayDetails: Test A preemergence
- Assay type: in vivo
- conditionSet: Bassia scoparia, pre-emergence, 240 h, 125 g ai/ha, preemergence; visual rating after approx. 10 d; 0 to 100 scale where 0 is no effect and 100 is complete control; read-out: Plant response rating, Kochia
parameterMeasured: pest or weed control at 125 g/ha (%)
Only the number, expressed in %, is required.

These recorded examples may help you get a feel for the data.
[
  {
    "compoundStructure": "Cc1cc([C@H]2CN(C)C(=O)[C@@H]2C(=O)Nc2cccc(F)c2F)cc(C)c1C",
    "pest or weed control at 125 g/ha (%)": 20
  },
  {
    "compoundStructure": "Cc1cc([C@H]2CN(C)C(=O)[C@@H]2C(=O)Nc2ccccc2F)cc(C)c1C",
    "pest or weed control at 125 g/ha (%)": 20
  },
  {
    "compoundStructure": "Cc1cc(F)cc([C@H]2CN(C)C(=O)[C@@H]2C(=O)Nc2cccc(F)c2C#N)c1",
    "pest or weed control at 125 g/ha (%)": 0
  },
  {
    "compoundStructure": "CN1C[C@H](c2ccc(OC(F)F)cc2)[C@@H](C(=O)Nc2ccccc2S(C)(=O)=O)C1=O",
    "pest or weed control at 125 g/ha (%)": 80
  },
  {
    "compoundStructure": "O=C1NC[C@H](c2ccc(C3CC3)cc2)[C@H]1C(=O)Nc1ccccc1F",
    "pest or weed control at 125 g/ha (%)": 0
  },
  {
    "compoundStructure": "COc1cc([C@H]2CN(C)C(=O)[C@@H]2C(=O)Nc2ccccc2SC)ccc1C(F)(F)F",
    "pest or weed control at 125 g/ha (%)": 30
  },
  {
    "compoundStructure": "CN1C[C@H](c2nccs2)[C@@H](C(=O)Nc2ccccc2F)C1=O",
    "pest or weed control at 125 g/ha (%)": 0
  }
]

molecule O=C1NC[C@H](c2csc3ccccc23)[C@H]1C(=O)Nc1cccc(F)c1F , pest or weed control at 125 g/ha observed: 20

---

- Test system: barnyardgrass (Echinochloa crus-galli)
- assayDetails: Test A preemergence
- Assay type: in vivo
- conditionSet: Echinochloa crus-galli, pre-emergence, 240 h, 31 g ai/ha, Preemergence; 0 to 100 scale where 0 is no effect and 100 is complete control; read-out: Barnyardgrass plant response rating
- Description: […]
Returns 1 if the recorded pest or weed control at 31 g/ha is greater than or equal to 30%, and -1 otherwise.

[
  {
    "molecule": "CN1C[C@H](c2cccc(C(F)(F)F)c2)[C@@H](C(=O)Nc2ccccc2CCO)C1=O (racemic) [Compound 1162]",
    "testedTarget": "barnyardgrass (Echinochloa crus-galli)",
    "className": 1
  }
]

// switching to the query molecule
pest or weed control at 31 g/ha >= 30% for CN1C[C@H](c2ccc(C#N)c(F)c2)[C@@H](C(=O)Nc2cccc(F)c2F)C1=O [Compound 1192] ?
1

---

pest or weed control at 125 g/ha values for the compounds below.
- Test system: barnyardgrass (Echinochloa crus-galli)
- assayDetails: Test A postemergence
- Format: in vivo
- conditionSet: Echinochloa crus-galli, post-emergence, 240 h, 125 g ai/ha, postemergence; visual injury after approximately 10 d; 0 to 100 scale (0 no effect, 100 complete control); read-out: Plant response rating, Barnyardgrass
Please reply with the bare figure in % and do not write the unit itself.

Some solved cases for reference:
[
  {
    "compound": "Cc1cc(F)cc([C@H]2CN(C)C(=O)[C@@H]2C(=O)Nc2cccc(F)c2C#N)c1 [Compound 800]",
    "unitsText": "%",
    "pest or weed control at 125 g/ha": 80
  },
  {
    "compound": "CN1C[C@H](c2cc(F)cc(F)c2)[C@@H](C(=O)NC2CCc3ccccc32)C1=O (stereo partly shown) [Compound 755]",
    "unitsText": "%",
    "pest or weed control at 125 g/ha": 0
  }
]

barnyardgrass (Echinochloa crus-galli) data for CCc1cc(CC)cc([C@H]2CN(C)C(=O)[C@@H]2C(=O)Nc2cccc(F)c2F)c1 [Compound 736] ; its pest or weed control at 125 g/ha: 90

Measured on barnyardgrass (Echinochloa crus-galli), CN1C[C@H](c2cccc(C(F)(F)F)c2)[C@@H](C(=O)Nc2ccccc2C2CC2)C1=O [Compound 749] has a documented pest or weed control at 125 g/ha of 0
